- SYSTEM: Sialic acid-binding Ig-like lectin 9 (Homo sapiens) (UniProt Q9Y336)
- Sequence (Q9Y336 whole entry): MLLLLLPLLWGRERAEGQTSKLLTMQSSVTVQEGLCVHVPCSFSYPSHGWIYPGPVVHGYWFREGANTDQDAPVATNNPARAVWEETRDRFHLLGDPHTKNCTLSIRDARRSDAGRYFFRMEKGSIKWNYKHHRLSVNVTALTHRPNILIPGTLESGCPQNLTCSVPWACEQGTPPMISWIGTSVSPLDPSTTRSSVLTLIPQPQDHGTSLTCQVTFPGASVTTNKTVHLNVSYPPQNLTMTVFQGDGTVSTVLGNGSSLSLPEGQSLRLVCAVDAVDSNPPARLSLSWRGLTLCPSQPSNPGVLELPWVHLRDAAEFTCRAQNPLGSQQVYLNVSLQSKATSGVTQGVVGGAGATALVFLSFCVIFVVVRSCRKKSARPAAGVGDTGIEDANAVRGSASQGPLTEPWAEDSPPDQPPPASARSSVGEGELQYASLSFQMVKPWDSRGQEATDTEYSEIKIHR
- TEST METHOD NOTES: Hs-Siglec9 ALPHAscreen SOP 20170721
- Design: scale not given: direction of the effect not stated beside the values
- CONDITIONS USED: 10 µM
Record form. Attribute: Percent Effect. Fill in for each entry.
Lab book: enter the figure in %, no units written.

**Q:** Look up and report measured Percent Effect for this entry: O=C(NCc1ccccn1)[C@@H]1CCO[C@@H]2CCN(Cc3ccoc3)C[C@H]21
**A:** -2.83

**Q:** Give Percent Effect for the following compound: CCn1cc(NC(=O)NCC(O)c2ccccc2)cn1 (centres undefined)
**A:** 13.4

**Q:** Return Percent Effect for the following compound: COc1cccc(CN2CCC(c3nccn3C(C)C)CC2)c1
**A:** 14.9

**Q:** Give Percent Effect for NS(=O)(=O)CCNC(=O)c1nnn(-c2ccc(F)cc2)c1C1CC1
**A:** 0.877

###

- Species: Homo sapiens
- TEST METHOD NOTES: To identify inhibition of the IFN signalling (Jak-Stat) pathway via expression of an eGFP reporter gene under the control of an IFN-stimulated response element (ISRE) containing MxA promoter.
- Type: functional
- Parameters: scale not given: direction of the effect not stated beside the values
- CONDITIONS USED: 30 µM
# label = 1 (yes) if Percent Effect >= 20% else 0 (no)

**Q:** Hi team, for N#Cc1cccnc1NCCNC(=O)N1CCCSCC1 , is the recorded Percent Effect at or above 20%?
**A:** 0 (no)

**Q:** Identify whether the reported Percent Effect of the following molecule is 20% or greater: CCN1CC(C(=O)N(C)Cc2ccon2)CC1=O (stereo not given)
**A:** 0 (no)

**Q:** Quick check: does Cc1ccc(CS(=O)(=O)N2CC[C@H]3[C@H]2CCN3C)cc1 have Percent Effect greater than or equal to 20%?
**A:** 0 (no)

**Q:** Form field: Percent Effect at least 20%? Entry: CN(CCC#N)C(=O)CCOc1cccc(F)c1
**A:** 1 (yes)

**Q:** Hi, just wondering whether COCc1noc(C2(c3ccc(F)cc3)CCOCC2)n1 shows Percent Effect of 20% or higher.
**A:** 1 (yes)

**Q:** Threshold query (Percent Effect >= 20%) on CN(C)CC1CN(c2ncnc3[nH]ccc23)CCO1 (stereo not given)
**A:** 1 (yes)

**Q:** Identify whether the reported Percent Effect of the following molecule is 20% or greater: CC(C)c1nc(C2CCCN(C(=O)CCn3ccnc3)C2)no1 (stereo not given)
**A:** 0 (no)

**Q:** Hello, I need to know if CCn1cnnc1C1CCN(C(=O)c2cc3c(s2)CCC3)CC1 has measured Percent Effect not below 20%. Thanks!
**A:** 0 (no)

**Q:** In plain terms: is recorded Percent Effect at least 20% for CN(C)C(=O)NCc1cc2n(n1)CCN(C[C@H]1[C@@H]3CNC[C@@H]31)C2 ?
**A:** 0 (no)

###

For each record, write down the corresponding Percent Effect.
- SYSTEM: Arginase-2, mitochondrial (Homo sapiens) (UniProt P78540)
- Sequence (P78540 whole entry): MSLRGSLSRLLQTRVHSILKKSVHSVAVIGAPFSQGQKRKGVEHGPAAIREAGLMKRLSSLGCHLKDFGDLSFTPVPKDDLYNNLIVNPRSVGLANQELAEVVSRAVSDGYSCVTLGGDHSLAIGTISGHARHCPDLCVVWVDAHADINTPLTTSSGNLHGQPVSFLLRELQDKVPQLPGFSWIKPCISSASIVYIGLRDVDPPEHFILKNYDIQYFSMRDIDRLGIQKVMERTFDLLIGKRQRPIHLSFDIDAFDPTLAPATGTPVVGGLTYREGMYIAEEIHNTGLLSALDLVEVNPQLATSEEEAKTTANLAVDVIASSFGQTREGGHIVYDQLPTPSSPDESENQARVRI
- TEST METHOD NOTES: in vitro enzyme assay to detect the production of urea directly proportional to the activity of Arginase II; further: in the data most compounds retested in dose-response had high values
- Type: functional
- Parameters: scale not given: direction of the effect not stated beside the values
- CONDITIONS USED: 33.3 µM
Write the value in % as a bare number.

**Q:** Read off the recorded Percent Effect for CC(NC(=O)COc1nc(C(C)(C)C)no1)c1ccco1 (stereo unspecified)
**A:** 2.86

**Q:** Dear colleague, please send me the reported Percent Effect for CNc1oc(-c2cc(S(=O)(=O)N3CCCCCC3)c(C)o2)nc1C#N when you can.
**A:** -3.35

**Q:** Identify measured Percent Effect corresponding to COc1ccc(NC(=O)CNc2cccc3c2CCCC3)c(OC)c1
**A:** -3.23

**Q:** Complete the entry with Percent Effect for CCOCCn1c(=O)[nH]c2cc(C(=O)N(C)Cc3nc(C)cs3)ccc21
**A:** 0.476

**Q:** Write down Percent Effect measured for item CN(C(=O)c1cccc2[nH]ncc12)C1CCN(c2ccccn2)CC1
**A:** -3.16

**Q:** Name the recorded Percent Effect of the item Cn1cc(CN2CCc3nc(-c4ccccn4)nc(O)c3C2)cn1 in your answer.
**A:** -3.96
